assay: Serum stability of miRNA mimic M30m3 alone or with cationic peptide/hybrid polymer in 5% human serum (TBE-urea gel); details: M30m3 with polymer at N/P charge ratio 2, 37 C, calculated based on first order decay comparing two time points
No end group written: not given here. PEG5000 = N-terminal 5 kDa PEG spacer; PEG2000 = PEG polymer of 2000 Da
# label = 1.0 if Serum Stability at N/P2 < 20 h else 0.0

substance | assigned_class
[PEG12][PEG12]RRRRRRRRRRRR (N-terminal PEG24; MOD_RES 1 N-terminal PEG24 spacer) [PEP24PolyArg12] | 0.0
TTTTTTRRRRRRRRRRRR [T6PolyArg12] | 1.0
RRRRRRRRRRRR-[NHS Ester-BranchedPEG2kda] [PolyArg12bp2kDa] | 1.0
RTRRTRRTRRTRRTRRTR [PolyArg12Tinsert] | 1.0
[PEG12]RRRRRR [PEG12PolyArg6] | 0.0
[PEG12]RdRdRdRdRdRdRdRdRdRdRdRd (RRRRRRRRRRRR; N-terminal PEG12; D-arginines; MOD_RES 1 N-terminal PEG12 spacer; MOD_RES 1..12 D-Arginine) [PEG12PolyArg12{d}] | 0.0
[PEG2000]-RRRRRRRRRRRR (PEG2000-RRRRRRRRRRRR) [PEG2000DaPolyArg12] | 0.0
[PEG5000]-RRRRRRRRRRRR (PEG5000-RRRRRRRRRRRR) [PEG5000DaPolyArg12] | 0.0

* * *

Measured Serum Stability at N/P1, listed per entry for reference.
assay: Serum stability of miRNA mimic M30m3 alone or with cationic peptide/hybrid polymer in 5% human serum (TBE-urea gel); conditions: M30m3 with polymer at N/P charge ratio 1, 37 C, calculated based on first order decay comparing two time points

molecule | Serum Stability at N/P1
NC(N)=NCCC[C@H](NC(=O)[C@H](CCCN=C(N)N)NC(=O)[C@H](CCCN=C(N)N)NC(=O)[C@H](CCCN=C(N)N)NC(=O)[C@H](CCCN=C(N)N)NC(=O)[C@@H](N)CCCN=C(N)N)C(=O)O [PolyArg6, RRRRRR] | 26.74 h
N=C(N)NCCC[C@H](NC(=O)[C@H](CCCNC(=N)N)NC(=O)[C@H](CCCNC(=N)N)NC(=O)[C@H](CCCNC(=N)N)NC(=O)[C@H](CCCNC(=N)N)NC(=O)[C@H](CCCNC(=N)N)NC(=O)[C@H](CCCNC(=N)N)NC(=O)[C@H](CCCNC(=N)N)NC(=O)[C@H](CCCNC(=N)N)NC(=O)[C@H](CCCNC(=N)N)NC(=O)[C@H](CCCNC(=N)N)NC(=O)[C@H](CCCNC(=N)N)NC(=O)[C@@H](N)CS)C(=O)N[C@@H](CS)C(=O)O [CPolyArg12C] | 34.91 h
N=C(N)NCCCCN [Agmatine, reference compound] | 20.78 h
N=C(N)NCCC[C@H](N)C(=O)O [Arginine, reference compound] | 7.179 h
NCCCNCCCCNCCCN [Spermine, reference compound] | 18.95 h
N=C(N)NCCC[C@H](NC(=O)[C@H](CCCNC(=N)N)NC(=O)[C@H](CCCNC(=N)N)NC(=O)[C@H](CCCNC(=N)N)NC(=O)[C@H](CCCNC(=N)N)NC(=O)[C@H](CCCNC(=N)N)NC(=O)[C@H](CCCNC(=N)N)NC(=O)[C@H](CCCNC(=N)N)NC(=O)[C@H](CCCNC(=N)N)NC(=O)[C@H](CCCNC(=N)N)NC(=O)[C@H](CCCNC(=N)N)NC(=O)[C@@H](N)CCCNC(=N)N)C(=O)N[C@@H](CS)C(=O)O [PolyArg12C] | 25.99 h

Provenance of the data: patent US20250127912A1
